Measured values drawn from patent US7501424B2 for this set.

# Experiment description: Acute toxicity test in mice (oral administration)
# Format: in vivo
# Run conditions: both sexes, ICR, mouse, in vivo, po
Property: LD50 at 14 days; scope: individual compounds

Cc1cn(-c2cc(NC(=O)c3ccc(C)c(Nc4nccc(-c5cnccn5)n4)c3)cc(C(F)(F)F)c2)cn1: ≥ 2000 mg/kg

Asked: Requested read-out: LD50 at 14 days. Entry: Cc1cn(-c2cc(NC(=O)c3ccc(C)c(Nc4nccc(-c5nccs5)n4)c3)cc(C(F)(F)F)c2)cn1
Given back: ≥ 2000 mg/kg

* * *

# Experiment description: in vivo
# Run conditions: male, Sprague-Dawley, rat, po, 100 mg/kg
Metric: AUC
The reply must contain the numeric value and, after it, the unit.

Asked: Requested read-out: AUC. Entry: Cc1cn(-c2cc(NC(=O)c3ccc(C)c(Nc4nccc(-c5cnccn5)n4)c3)cc(C(F)(F)F)c2)cn1
Given back: 61300 ng·h/mL

* * *

# Experiment description: Comparative pharmacokinetic test in white rats
# Run conditions: male, Sprague-Dawley, rat, plasma, po, 100 mg/kg
Metric: Tmax
The reply must contain the numeric value and, after it, the unit.

Asked: Requested read-out: Tmax. Entry: Cc1cn(-c2cc(NC(=O)c3ccc(C)c(Nc4nccc(-c5nccs5)n4)c3)cc(C(F)(F)F)c2)cn1
Given back: 11.2 h

* * *

# Tested on: CT-26 cancer cell
# Experiment description: Growth inhibition of CT-26 cancer cell (MTT)
# Format: cell-based
# Run conditions: Mus musculus, CT26, 48 h; CT-26, MTT, 2 days; read-out: IC50
Metric: IC50

As a guide, the following entries are already answered.
Cc1cnc(NC(=O)c2ccc(C)c(Nc3nccc(-c4nccs4)n3)c2)s1: < 0.01 µg/mL
Cc1ccc(C(=O)Nc2cc(-n3ccnc3C)cc(C(F)(F)F)c2)cc1Nc1nccc(-c2nccnc2C)n1: 3.77 µg/mL
Cc1cn(-c2cc(NC(=O)c3ccc(C)c(Nc4nccc(-c5cnccn5)n4)c3)cc(C(F)(F)F)c2)cn1: < 0.01 µg/mL
Cc1ccc(C(=O)Nc2cc(-n3ccnc3C)cc(C(F)(F)F)c2)cc1Nc1nccc(-c2cnccn2)n1: < 0.01 µg/mL
Cc1ccc(C(=O)Nc2cc(-n3ccnc3C)cc(C(F)(F)F)c2)cc1Nc1nccc(-c2nccs2)n1: < 0.01 µg/mL
Cc1cn(-c2cc(NC(=O)c3ccc(C)c(Nc4nccc(-c5nccs5)n4)c3)cc(C(F)(F)F)c2)cn1: 0.06 µg/mL

Now turn to the next compound.
Asked: Any idea what IC50 came out for Cc1cn(-c2cc(NC(=O)c3ccc(C)c(Nc4nccc(-c5nccnc5C)n4)c3)cc(C(F)(F)F)c2)cn1 on CT-26 cancer cell?
Given back: 2.93 µg/mL

* * *

# Experiment description: in vivo
# Run conditions: male, Sprague-Dawley, rat, po, 100 mg/kg
Metric: Cmax (ng/mL)
Your answer is read as ng/mL, so omit the unit and give the number.

Asked: Requested read-out: Cmax. Entry: Cc1cn(-c2cc(NC(=O)c3ccc(C)c(Nc4nccc(-c5cnccn5)n4)c3)cc(C(F)(F)F)c2)cn1
Given back: 4100

* * *

# Experiment description: Acute toxicity test in rat (oral administration)
# Format: in vivo
# Run conditions: both sexes, SD, rat, in vivo, po
Property: LD50 at 14 days; scope: individual molecules

Cc1cn(-c2cc(NC(=O)c3ccc(C)c(Nc4nccc(-c5nccs5)n4)c3)cc(C(F)(F)F)c2)cn1 [Example 5]: ≥ 2000 mg/kg

Now turn to the next molecule.
Asked: Requested read-out: LD50 at 14 days. Entry: Cc1cn(-c2cc(NC(=O)c3ccc(C)c(Nc4nccc(-c5cnccn5)n4)c3)cc(C(F)(F)F)c2)cn1 [Example 8]
Given back: ≥ 2000 mg/kg

* * *

# Test system: CT-26 cancer cell
# Experiment description: Growth inhibition of CT-26 cancer cell (MTT)
# Format: cell-based
# Run conditions: CT-26
Property: improved activity compared with Imatinib mesylate; scope: individual compounds

Cc1cnc(NC(=O)c2ccc(C)c(Nc3nccc(-c4nccs4)n3)c2)s1: 300 times
Cc1cn(-c2cc(NC(=O)c3ccc(C)c(Nc4nccc(-c5nccs5)n4)c3)cc(C(F)(F)F)c2)cn1: 300 times

Asked: Requested read-out: improved activity compared with Imatinib mesylate. Entry: Cc1ccc(C(=O)Nc2cc(-n3ccnc3C)cc(C(F)(F)F)c2)cc1Nc1nccc(-c2nccs2)n1
Given back: 300 times

Asked: Requested read-out: improved activity compared with Imatinib mesylate. Entry: Cc1cn(-c2cc(NC(=O)c3ccc(Nc4nccc(-c5nccs5)n4)cc3)cc(C(F)(F)F)c2)cn1.Cl.Cl
Given back: 300 times

* * *

# Test system: CT-26 cancer cell
# Experiment description: Growth inhibition of CT-26 cancer cell (MTT)
# Type: cell-based
# Run conditions: CT-26
Metric: improved activity compared with Imatinib mesylate
The reply must contain the numeric value and, after it, the unit.

Cc1ccc(C(=O)Nc2cc(-n3ccnc3C)cc(C(F)(F)F)c2)cc1Nc1nccc(-c2cnccn2)n1: 300 times
Cc1cn(-c2cc(NC(=O)c3ccc(Nc4nccc(-c5cccnc5)n4)cc3)cc(C(F)(F)F)c2)cn1.Cl.Cl: 300 times

Now turn to the next molecule.
Asked: Requested read-out: improved activity compared with Imatinib mesylate. Entry: Cc1cn(-c2cc(NC(=O)c3ccc(C)c(Nc4nccc(-c5cnccn5)n4)c3)cc(C(F)(F)F)c2)cn1
Given back: 300 times
